# Study target: IRAK-4 (Homo sapiens)
# Assay comment: IRAK-4 ELISA, OCI-Ly10 degradation
# Assay type: cell-based
# Parameters: endogenous in cells
# Stated conditions: OCI-Ly10, OCI-Ly10 cells, treated overnight
Assay endpoint: Dmax

O=C1CCC(N2C(=O)c3ccc(OCCOCCN4CCC(n5cc6cc(NC(=O)c7cnn8cccnc78)c(OCC7CC7)cc6n5)CC4)cc3C2=O)C(=O)N1 (stereo not drawn) [Example 121]
≥ 90%
COc1cc2nn(C3CCN(C4CN(c5ccc6c(c5)C(=O)N(C5CCC(=O)NC5=O)C6=O)C4)CC3)cc2cc1NC(=O)c1cnn2cccnc12 (stereo not drawn) [Example 205]
80 to 90%
CC(C)Oc1cc2c(cc1NC(=O)c1cnn3cccnc13)CN(C1CCN(CC3CN(c4ccc5c(c4)CN(C4CCC(=O)NC4=O)C5=O)C3)CC1)C2=O (stereo not drawn) [Example 4]
≥ 90%
CC(C)Oc1cc2c(cc1NC(=O)c1cnn3cccnc13)CN(C1CCN(CCc3ccc4c(c3)C(=O)N(C3CCC(=O)NC3=O)C4=O)CC1)C2=O (stereo not drawn) [Example 7]
80 to 90%
CC(C)Oc1cc2c(cc1NC(=O)c1cnn3cccnc13)CN(C1CCN(CC3CCN(c4ccc5c(c4)C(=O)N(C4CCC(=O)NC4=O)C5=O)CC3)CC1)C2=O (stereo not drawn) [Example 1]
≥ 90%

Reading of Dmax for O=C1CCC(N2C(=O)c3ccc(N4CCC(COC[C@H](F)Cn5cc6cc(NC(=O)c7cnn8cccnc78)c(OCC7CC7)cc6n5)CC4)cc3C2=O)C(=O)N1 (stereo partly drawn) [Example 181] with IRAK-4 (Homo sapiens): 80 to 90%

###

# System: IL6
# Assay comment: IL-1β stimulated IL6 inhibition assay in PBMC
# Assay type: cell-based
# Stated conditions: PBMC; human PBMCs, IL-1β stimulation, compound overnight, IL6 by MSD after 24 hrs; read-out: IL1β stim IL6 inhibition Ymax
# Method: IL-1β, LPS, or R848 Stimulated IL6 Inhibition and IL-1β Stimulated IL8 Inhibition Assay Human PBMC cells were seeded at 2.0×10^6 cells/mL, treated with compound overnight, and dosed with the EC50 concentration of each stimulant (either IL-1B. LPS, or R848) was determined for each donor. After 24 hrs, media was collected and analyzed by MSD for IL6 and/or IL8 levels.
Quick list: Emax per entry.

O=C1CCC(N2C(=O)c3ccc(N4CCC(CN5CCC(n6cc7cc(NC(=O)c8cnn9cccnc89)c(OCC8CC8)cc7n6)CC5)CC4)cc3C2=O)C(=O)N1 (stereo not drawn)
80 to 90%
O=C1CCC(N2Cc3cc(N4CC(N5CCC(n6cc7cc(NC(=O)c8cnn9cccnc89)c(OCC8CC8)cc7n6)CC5)C4)ccc3C2=O)C(=O)N1 (stereo not drawn)
≥ 90%

Reading of Emax for COc1cc2nn([C@H]3CC[C@H](N(C)C4CN(c5ccc6c(c5)C(=O)N(C5CCC(=O)NC5=O)C6=O)C4)CC3)cc2cc1NC(=O)c1cnn2cccnc12 (stereo partly drawn) with IL6: ≥ 90%

###

# Study target: IRAK-4 (Homo sapiens)
# Assay comment: IRAK-4 ELISA, PBMC degradation
# Type: cell-based
# Design: endogenous in cells; host or cells: PBMC
# Stated conditions: treated overnight
Quick list: DC50 per entry.

Field DC50 (entry O=C1CCC(N2C(=O)c3ccc(N4CC(F)(CN5CCC(N6Cc7cc(NC(=O)c8cnn9cccnc89)c(N8CCOCC8)cc7C6=O)CC5)C4)cc3C2=O)C(=O)N1 (centres unmarked) ) reads 1 to 5 nM

Field DC50 (entry O=C1CCC(N2Cc3cc(N4CCC(CN5CCC(n6cc7cc(NC(=O)c8cnn9cccnc89)c(N8CCN(CC(F)F)CC8)cc7n6)CC5)CC4)ccc3C2=O)C(=O)N1 (centres unmarked) ) reads < 1 nM

Field DC50 (entry CC(C)Oc1cc2c(cc1NC(=O)c1cnn3cccnc13)CN(C[C@@H](F)C1CCN(CC3CCN(c4ccc5c(c4)CN(C4CCC(=O)NC4=O)C5=O)CC3)CC1)C2=O (some centres unmarked) ) reads < 1 nM

Field DC50 (entry O=C1CCC(N2C(=O)c3ccc(O[C@H]4C[C@H](N[C@H]5CC[C@H](n6cc7cc(NC(=O)c8cnn9cccnc89)c(OCC8CC8)cc7n6)CC5)C4)cc3C2=O)C(=O)N1 (some centres unmarked) ) reads < 1 nM

Field DC50 (entry O=C1CCC(N2Cc3cc(N4CC(CN5CCC(n6cc7cc(NC(=O)c8cnn9cccnc89)c(OCC8CC8)cc7n6)CC5)C4)ccc3C2=O)C(=O)N1 (centres unmarked) ) reads < 1 nM

Field DC50 (entry CN(C1CN(c2ccc3c(c2)CN(C2CCC(=O)NC2=O)C3=O)C1)[C@H]1CC[C@H](N2Cc3cc(NC(=O)c4cnn5cccnc45)c(N4CCC(N5CCC5)CC4)cc3C2=O)CC1 (some centres unmarked) ) reads 1 to 5 nM

Field DC50 (entry COc1cc2nn(C3CCN(CC4CN(c5ccc6c(c5)CN(C5CCC(=O)NC5=O)C6=O)C4)CC3)cc2cc1NC(=O)c1cnn2cccnc12 (centres unmarked) ) reads < 1 nM

###

Quick list: Dmax per entry.
# Study target: UniProtKB Q9NWZ3
# Sequence (Q9NWZ3 1-460): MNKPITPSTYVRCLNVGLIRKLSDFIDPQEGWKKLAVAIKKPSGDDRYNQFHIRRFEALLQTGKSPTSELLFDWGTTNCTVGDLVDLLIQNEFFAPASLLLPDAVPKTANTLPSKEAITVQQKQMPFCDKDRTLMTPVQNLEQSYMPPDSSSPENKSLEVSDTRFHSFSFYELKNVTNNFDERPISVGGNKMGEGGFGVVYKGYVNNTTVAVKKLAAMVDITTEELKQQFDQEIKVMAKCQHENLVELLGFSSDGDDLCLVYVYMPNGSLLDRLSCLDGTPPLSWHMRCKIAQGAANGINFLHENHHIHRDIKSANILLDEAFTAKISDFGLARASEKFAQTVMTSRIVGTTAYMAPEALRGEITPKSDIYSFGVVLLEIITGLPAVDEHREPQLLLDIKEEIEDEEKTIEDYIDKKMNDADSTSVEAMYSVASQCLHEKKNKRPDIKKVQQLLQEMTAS
# Assay comment: IRAK-4 ELISA, PBMC degradation
# Format: cell-based
# Parameters: endogenous in cells; host or cells: PBMC
# Stated conditions: treated overnight

CC(C)Oc1cc2c(cc1NC(=O)c1cnn3cccnc13)CN([C@H]1CC[C@H](N(C)C3CN(c4ccc5c(c4F)CN(C4CCC(=O)NC4=O)C5=O)C3)CC1)C2=O (some centres unmarked)
≥ 90%
O=C1CCC(N2C(=O)c3ccc(N4CC(CN5CCC(n6cc7cc(NC(=O)c8cnn9cccnc89)c(C8CC8)cc7n6)CC5)C4)cc3C2=O)C(=O)N1 (centres unmarked)
≥ 90%
CN(C1CN(c2ccc3c(c2)CN(C2CCC(=O)NC2=O)C3=O)C1)[C@H]1CC[C@H](N2Cc3cc(NC(=O)c4cnn5cccnc45)c(N4CCC(N5CCC5)CC4)cc3C2=O)CC1 (some centres unmarked)
≥ 90%
CC(C)Oc1cc2c(cc1NC(=O)c1cnn3ccc(N4CCOCC4)nc13)CN(C1CCN(CC3CN(c4ccc5c(c4)C(=O)N(C4CCC(=O)NC4=O)C5=O)C3)CC1)C2=O (centres unmarked)
70 to 80%
O=C1CCC(N2Cc3cc(N4CC(F)(CN5CCC(n6cc7cc(NC(=O)c8cnn9cccnc89)c(OCC8CC8)cc7n6)CC5)C4)c(F)cc3C2=O)C(=O)N1 (centres unmarked)
80 to 90%

Reading of Dmax for O=C1CCC(N2Cc3c(ccc(N4CC(F)(CN5CCC(n6cc7cc(NC(=O)c8cnn9cccnc89)c(OCC(F)F)cc7n6)CC5)C4)c3F)C2=O)C(=O)N1 (centres unmarked) with UniProtKB Q9NWZ3: 80 to 90%

Reading of Dmax for O=C1CCC(N2C(=O)c3ccc(N4CCC(CN5CCC(N6Cc7cc(NC(=O)c8cnn9cccnc89)c(OCC(F)F)cc7C6=O)CC5)CC4)cc3C2=O)C(=O)N1 (centres unmarked) with UniProtKB Q9NWZ3: ≥ 90%

###

Quick list: Dmax per entry.
# Study target: IRAK-4 (Homo sapiens)
# Assay comment: IRAK-4 ELISA, OCI-Ly10 degradation
# Format: cell-based
# Parameters: endogenous in cells
# Stated conditions: OCI-Ly10, OCI-Ly10 cells, treated overnight

Example entries and their recorded answers appear below.
COc1cc2nn(C3CCN(CCc4ccc5c(c4)CN(C4CCC(=O)NC4=O)C5=O)CC3)cc2cc1NC(=O)c1cnn2cccnc12 (stereo not drawn)
≥ 90%
COc1cc2nn([C@H]3CC[C@H](N(C)C4CCN(c5ccc6c(c5)C(=O)N(C5CCC(=O)NC5=O)C6=O)CC4)CC3)cc2cc1NC(=O)c1cnn2cccnc12 (stereo partly drawn)
≥ 90%

Moving on to the next compound.
Reading of Dmax for O=C1CCC(N2C(=O)c3ccc(N4CC(N5CCC(n6cc7cc(NC(=O)c8cnn9cccnc89)c(OCC8CC8)cc7n6)CC5)C4)cc3C2=O)C(=O)N1 (stereo not drawn) with IRAK-4 (Homo sapiens): ≥ 90%
